# T/C values compiled below
# System: CD2F1 mice, L1210 leukemia ip, survival T/C
# experiment-description: NCI In Vivo Anticancer Drug Screen. Data for tumor model L1210 Leukemia (intraperitoneal) in CD2F1 (CDF1) mice
# measurement-setup: endpoint: mean survival time; dose: 100.0 mg/kg/injection; schedule: Q01DX009 (ip); vehicle: saline with Tween-80; higher = longer survival
Inconclusive results and toxic doses are left out.
quantity-measured: T/C

{"compound": "Cc1ccc2c(c1Oc1ccc(S(N)(=O)=O)cc1)C(=O)c1ccccc1C2=O", "study-target": "CD2F1 mice, L1210 leukemia ip, survival T/C", "experimental-result": "103 % of control"}
{"compound": "O=C(O)C1C2C=CC(C2)C1C(=O)Nc1ccccc1 (stereo not drawn)", "study-target": "CD2F1 mice, L1210 leukemia ip, survival T/C", "experimental-result": "97 % of control"}
{"compound": "O=C1C=C(CCc2ccccc2)CCC1", "study-target": "CD2F1 mice, L1210 leukemia ip, survival T/C", "experimental-result": "107 % of control"}
{"compound": "CCN(CC)C(C(=O)Nc1ccccc1)C(=O)Nc1ccccc1", "study-target": "CD2F1 mice, L1210 leukemia ip, survival T/C", "experimental-result": "98 % of control"}
{"compound": "CN(C)C", "study-target": "CD2F1 mice, L1210 leukemia ip, survival T/C", "experimental-result": "103 % of control"}
{"compound": "COc1cc(OC)c(NC(=O)OCCOc2ccc([N+](=O)[O-])cc2)cc1Cl", "study-target": "CD2F1 mice, L1210 leukemia ip, survival T/C", "experimental-result": "86 % of control"}
{"compound": "CC(=O)Oc1ccc(Cl)cc1", "study-target": "CD2F1 mice, L1210 leukemia ip, survival T/C", "experimental-result": "95 % of control"}
{"compound": "OC1CCCCCCCCCCC1C(O)(C(F)(F)F)C(F)(F)F (stereo not drawn)", "study-target": "CD2F1 mice, L1210 leukemia ip, survival T/C", "experimental-result": "86 % of control"}
{"compound": "Oc1c(C(c2ccccc2)N2CCOCC2)ccc2ccccc12 (stereo not drawn)", "study-target": "CD2F1 mice, L1210 leukemia ip, survival T/C", "experimental-result": "102 % of control"}
{"compound": "C=C1C(=O)O[C@@H]2[C@H]1CC[C@H](C)[C@]1(O)CCC(=O)[C@@]21C", "study-target": "CD2F1 mice, L1210 leukemia ip, survival T/C", "experimental-result": "98 % of control"}
{"compound": "C=CCCCCCCCCCCC(=O)OC", "study-target": "CD2F1 mice, L1210 leukemia ip, survival T/C", "experimental-result": "106 % of control"}
{"compound": "CCOC(=O)CC(=O)c1c(C)cc(C)cc1C", "study-target": "CD2F1 mice, L1210 leukemia ip, survival T/C", "experimental-result": "89 % of control"}
{"compound": "Nc1ccc2c(c1)C=CCS2", "study-target": "CD2F1 mice, L1210 leukemia ip, survival T/C", "experimental-result": "102 % of control"}
{"compound": "CCCC1=CC(C)(C)CC(C)=C1 (tested in a mixture with another compound)", "study-target": "CD2F1 mice, L1210 leukemia ip, survival T/C", "experimental-result": "96 % of control"}
{"compound": "CCOC(CN(N=O)c1ccccc1C(C)C)OCC", "study-target": "CD2F1 mice, L1210 leukemia ip, survival T/C", "experimental-result": "98 % of control"}
{"compound": "O=C(C(=O)N1CC2C=CC1C2)c1c[nH]c2ccccc12 (stereo not drawn)", "study-target": "CD2F1 mice, L1210 leukemia ip, survival T/C", "experimental-result": "101 % of control"}
{"compound": "Nc1cc(Cl)c(N)c(N)n1", "study-target": "CD2F1 mice, L1210 leukemia ip, survival T/C", "experimental-result": "100 % of control"}
{"compound": "Cc1ccc(C(=O)CCCCl)c(C)c1", "study-target": "CD2F1 mice, L1210 leukemia ip, survival T/C", "experimental-result": "111 % of control"}
{"compound": "CC(=O)Nc1ccc([N+](=O)[O-])cc1", "study-target": "CD2F1 mice, L1210 leukemia ip, survival T/C", "experimental-result": "96 % of control"}
{"compound": "NC(CO)C(O)c1ccc(N=Nc2ccc(O)cc2)cc1 (stereo not drawn)", "study-target": "CD2F1 mice, L1210 leukemia ip, survival T/C", "experimental-result": "94 % of control"}
{"compound": "CC(=O)Nc1ccccc1C#N", "study-target": "CD2F1 mice, L1210 leukemia ip, survival T/C", "experimental-result": "98 % of control"}
{"compound": "COC(=O)C(CSCc1ccccc1)NC(=O)C(C)NC(=O)OCc1ccccc1 (stereo not drawn)", "study-target": "CD2F1 mice, L1210 leukemia ip, survival T/C", "experimental-result": "88 % of control"}
{"compound": "C=CCCCCCCCCC(=O)NN1CCOCC1", "study-target": "CD2F1 mice, L1210 leukemia ip, survival T/C", "experimental-result": "94 % of control"}
